measured.on: AMPK
test.description: AMPK activation, enzyme-linked immunosorbent assay
Assay type: biochemical
measurement.parameters: compounds of Table 1 (Table 6), formate salt
Structures can show the parent of a compound that is named as a salt.
readout: EC50

Lookup: Given O=C(NC1CCN(Cc2ccncc2)CC1)c1cc2cc(OC3CCN(c4ccc(C(F)(F)F)cc4)CC3)ccc2o1 [1-105, formate salt] , respond with its EC50.
Found: < 100 nM

---

measured.on: AMPK
test.description: AMPK activation, enzyme-linked immunosorbent assay
Assay type: biochemical
measurement.parameters: compounds of Table 1 (Table 6)
Hi there, I'd appreciate the recorded EC50 for every entry that follows.

| molecule | EC50 |
| --- | --- |
| CN(C(=O)c1cc2cc(OC3CCN(c4ccc(C(F)(F)F)cc4)CC3)ccc2o1)C1CCN(Cc2ccncc2)CC1 | 100 to 500 nM |
| O=C(NC1CCN(Cc2ccccn2)CC1)c1cc2ccc(OC3CCN(c4ccc(OC(F)(F)F)cc4)CC3)cc2o1 | 500 to 1000 nM |
| O=C(NC1CCN(Cc2ccncc2)CC1)c1cc2cc(OC3CCN(c4ccc(C(F)(F)F)cc4)CC3)ccc2s1 | < 100 nM |
| Fc1ccc(CN2CCC(NC3CCc4cc(OC5CCN(c6ccc(C(F)(F)F)cc6)CC5)ccc43)CC2)cc1 (stereo not drawn) | 100 to 500 nM |
| O=C(N[C@@H]1CCNC1)c1cc2cc(OC3CCN(c4ccc(C(F)(F)F)cc4)CC3)ccc2o1 | > 10000 nM |
| O=C(NC1CCN(Cc2ccc3ccccc3c2)CC1)c1ccc(OC2CCN(c3ccc(C(F)(F)F)cc3)CC2)cn1 | 500 to 1000 nM |
| CC(C)(C)OC(=O)N1CC[C@@H](NC(=O)c2cc3cc(OC4CCN(c5ccc(C(F)(F)F)cc5)CC4)ccc3o2)C1 | 1000 to 5000 nM |
| O=C(NC1CCN(Cc2ccncc2)CC1)c1sc2cc(OC3CCN(c4ccc(C(F)(F)F)cc4)CC3)ccc2c1Cl | < 100 nM |

Below are 4 molecules. Give each one its EC50.
1. N#Cc1ccc(CN2CC[C@H](NC(=O)c3ccc(OC4CCN(c5ccc(C(F)(F)F)cc5)CC4)cn3)C2)cc1
2. O=C(NC1CCNCC1)c1cc2ccc(OC3CCN(c4ccc(C(F)(F)F)cc4)CC3)cc2s1
3. O=S(=O)(NC1CCNCC1)c1ccc(OC2CCN(c3ccc(C(F)(F)F)cc3)CC2)nc1
4. CN(C(=O)c1cc2cc(OC3CCN(c4ccc(C(F)(F)F)cc4)CC3)ccc2o1)C1CCN(Cc2cccc(C#N)c2)CC1

Found:
1. < 100 nM
2. 100 to 500 nM
3. 1000 to 5000 nM
4. < 100 nM

Below are 3 molecules. Give each one its EC50.
1. O=C(NC1CN(Cc2ccncc2)C1)c1ccc(OC2CCN(c3ccc(C(F)(F)F)cc3)CC2)cn1
2. Cc1c(C(=O)NC2CCN(Cc3ccccn3)CC2)oc2cc(OC3CCN(c4ccc(C(F)(F)F)cc4)CC3)ccc12
3. CC(C)(C)OC(=O)N1CCC(NC(=O)c2cc3cc(OC4CCN(c5ccc(C(F)(F)F)cc5)CC4)ccc3o2)CC1

Found:
1. 1000 to 5000 nM
2. < 100 nM
3. 500 to 1000 nM

Below are 4 molecules. Give each one its EC50.
1. CN(C(=O)c1cc2cc(OC3CCN(c4ccc(C(F)(F)F)cc4)CC3)ccc2o1)C1CCN(C(=O)c2ccncc2)CC1
2. N#Cc1ccc(CN2CCC(NC(=O)c3ccc(OC4CCN(c5ccc(C#N)cc5)CC4)cn3)CC2)cc1
3. O=C(NC1CCN(Cc2ccncc2)CC1)c1cc2cc(OC3CCN(c4ccc(C(F)(F)F)cc4)CC3)ccc2o1
4. CC(C)(C)OC(=O)N1CCC(NC(=O)c2cc(OC3CCN(c4ccc(C(F)(F)F)cc4)CC3)ccn2)CC1

Found:
["100 to 500 nM", "< 100 nM", "100 to 500 nM", "500 to 1000 nM"]

Below are 8 molecules. Give each one its EC50.
1. O=C(N[C@@H]1CCNC1)c1ccc(OC2CCN(c3ccc(C(F)(F)F)cc3)CC2)cn1
2. CN(C(=O)c1cc2cc(OC3CCN(c4ccc(C(F)(F)F)cc4)CC3)ccc2o1)C1CCNCC1
3. O=C(NC1CCN(C(=O)c2ccncc2)CC1)c1cc2ccc(OC3CCN(c4ccc(C(F)(F)F)cc4)CC3)cc2o1
4. O=C(N[C@@H]1CCN(Cc2ccc(F)cc2)C1)c1ccc(OC2CCN(c3ccc(C(F)(F)F)cc3)CC2)cn1
5. Cc1c(C(=O)NC2CCNCC2)oc2cc(OC3CCN(c4ccc(C(F)(F)F)cc4)CC3)ccc12
6. N#Cc1ccc(N2CCC(Oc3ccc(C(=O)NC4CCN(Cc5ccncc5)CC4)nc3)CC2)cc1
7. CC(C)(C)OC(=O)N1CC[C@@H](NC(=O)c2ccc(OC3CCN(c4ccc(C(F)(F)F)cc4)CC3)cn2)C1
8. O=C(N[C@@H]1CCN(S(=O)(=O)c2cccnc2)C1)c1cc2cc(OC3CCN(c4ccc(C(F)(F)F)cc4)CC3)ccc2o1

Found:
1: 5000 to 10000 nM; 2: 1000 to 5000 nM; 3: < 100 nM; 4: 500 to 1000 nM; 5: 5000 to 10000 nM; 6: 100 to 500 nM; 7: 100 to 500 nM; 8: 1000 to 5000 nM

Below are 3 molecules. Give each one its EC50.
1. O=C(NC1CCN(C(=O)c2ccncc2)CC1)c1cc2cc(OC3CCN(c4ccc(C(F)(F)F)cc4)CC3)ccc2o1
2. N#Cc1ccc(CN2CCC(NC(=O)c3cc(OC4CCN(c5ccc(C(F)(F)F)cc5)CC4)ccn3)CC2)cc1
3. Cc1c(C(=O)NC2CCN(Cc3cccnc3)CC2)oc2cc(OC3CCN(c4ccc(C(F)(F)F)cc4)CC3)ccc12

Found:
1. < 100 nM
2. < 100 nM
3. < 100 nM
